Values from paper PMC9571063

# Assay System: MmCLK1 (Mus musculus, UniProt P22518)
# Construct: host or cells: bacteria
# Sequence (P22518 whole entry): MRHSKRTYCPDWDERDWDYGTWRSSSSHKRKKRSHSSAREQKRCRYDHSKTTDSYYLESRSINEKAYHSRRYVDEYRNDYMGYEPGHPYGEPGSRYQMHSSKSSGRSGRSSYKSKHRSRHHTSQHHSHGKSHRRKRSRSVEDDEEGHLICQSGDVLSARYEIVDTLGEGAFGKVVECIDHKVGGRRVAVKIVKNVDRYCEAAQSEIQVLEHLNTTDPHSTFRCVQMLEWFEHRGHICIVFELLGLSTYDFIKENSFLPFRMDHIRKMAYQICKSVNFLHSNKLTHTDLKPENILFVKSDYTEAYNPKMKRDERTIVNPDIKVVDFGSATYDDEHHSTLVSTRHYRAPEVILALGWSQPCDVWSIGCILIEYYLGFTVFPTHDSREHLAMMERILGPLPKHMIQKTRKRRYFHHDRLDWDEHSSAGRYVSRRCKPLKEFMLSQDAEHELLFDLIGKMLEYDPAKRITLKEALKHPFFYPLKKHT
# Protocol Text: ADP-Glo kinase assay
# Format: biochemical
# Test Settings: mouse CLK1 orthologue; read-out: IC50 MmCLK1
# IC50 per record follows
Quantity Name: IC50 (nM)

Molecule: N[C@H]1CC[C@H](n2cc(COc3cccc4cnc(Nc5cccc(Cl)c5)nc34)nn2)CC1 [19a]
Scale Unit: nM
Numeric Result: 200
--
Molecule: O=[N+]([O-])c1cc(Br)ccc1-n1cc(COc2cccc3cnc(Nc4cccc(Cl)c4)nc23)nn1 [12d]
Scale Unit: nM
Numeric Result: 391
--
Molecule: COC(=O)c1ccc(-n2cc(COc3cccc4cnc(Nc5cccc(Cl)c5)nc34)nn2)c([N+](=O)[O-])c1 [12f]
Scale Unit: nM
Numeric Result: 245
--
Molecule: N[C@H]1CC[C@H](n2cc(COc3cccc4cnc(Nc5cc(Cl)cc(Cl)c5)nc34)nn2)CC1 [19b]
Scale Unit: nM
Numeric Result: 210
--
Molecule: O=[N+]([O-])c1cc(O)ccc1-n1cc(COc2cccc3cnc(Nc4cccc(Cl)c4)nc23)nn1 [12c]
Scale Unit: nM
Numeric Result: 177
--
Molecule: N[C@H]1CC[C@@H](n2cc(COc3cccc4cnc(Nc5cc(Cl)cc(Cl)c5)nc34)nn2)CC1 [16b]
Scale Unit: nM
Numeric Result: 180
--
Molecule: N[C@H]1CC[C@@H](n2cc(COc3cccc4cnc(Nc5cccc(Cl)c5)nc34)nn2)CC1 [16a]
Scale Unit: nM
Numeric Result: 220
--
Molecule: O=C(O)c1ccc(-n2cc(COc3cccc4cnc(Nc5cccc(Cl)c5)nc34)nn2)c([N+](=O)[O-])c1 [12g]
Scale Unit: nM
Numeric Result: 24
--
Molecule: O=[N+]([O-])c1cc(CO)ccc1-n1cc(COc2cccc3cnc(Nc4cccc(Cl)c4)nc23)nn1 [12e]
Scale Unit: nM
Numeric Result: 191
--
Molecule: Cc1ccc(-n2cc(COc3cccc4cnc(Nc5ccccc5)nc34)nn2)c([N+](=O)[O-])c1
Scale Unit: nM
Numeric Result: 466
